These entries and their values trace back to ChEMBL document CHEMBL3853321.

- measurement.notes: Drug uptake in blood of rat monocrotaline model of pulmonary arterial hypertension at 0.01 mg/kg, it
- Type: ADME, organism-based
- condition.details: in vivo, inhaled_or_intranasal, read-out: Drug uptake

{"input.smiles": "Cc1ncc(C(=O)NCCN2CCCC2(C)C)cc1NC(=O)c1cnn2cc(-c3cnn(C)c3)ccc12", "concentration / nM": 210}

* * *

- measurement.notes: Drug uptake in rat lung at 0.1 mg/kg, it at 7 hrs
- Assay type: ADME, organism-based
- condition.details: inhaled or intranasal, read-out: Drug uptake
metric.name: concentration at 7 h (nM)

{"input.smiles": "Cc1ncc(C(=O)NCCN2CCCC2(C)C)cc1NC(=O)c1cnn2cc(-c3cnn(C)c3)ccc12", "reported.value": 1300}
{"input.smiles": "C[C@@H]1CCC[C@H](C)N1CCNC(=O)c1ccc(F)c(NC(=O)c2cnc3cc(-c4ccnn4C)ccn23)c1", "reported.value": 302}
{"input.smiles": "Cn1cc(-c2ccn3c(C(=O)Nc4cc(C(=O)NCCN5CCCC5(C)C)ccc4F)cnc3c2)cn1", "reported.value": 1030}
{"input.smiles": "CN1CCN(c2ccccc2CNC(=O)c2ccc(F)c(NC(=O)c3cnc4cc(-c5ccnn5C)ccn34)c2)CC1", "reported.value": 687}
